Values were extracted from ChEMBL document CHEMBL2413072.

Each entry below carries its recorded growth at 0.01 µM.
Test system: RXF 393
Experiment: Growth inhibition of human RXF393 cells assessed as cell growth at 10^-8 M by sulforhodamine B assay
Format: functional
Details: read-out: Activity
Field format: number, assumed %, no unit text.

Solved entries:
CC(C)=CC(=O)O[C@@H]1CC(C)(C)C[C@H]2C3=CC[C@@H]4[C@@]5(C)CC[C@H](O)C(C)(C)[C@@H]5CC[C@@]4(C)[C@]3(C)CC[C@@]12C(=O)O 97
C/C=C(/C)C(=O)O[C@@H]1CC(C)(C)C[C@H]2C3=CC[C@@H]4[C@@]5(C)CCC(=O)C(C)(C)[C@@H]5CC[C@@]4(C)[C@]3(C)CC[C@@]12C(=O)O 95
CC(C)=CC(=O)O[C@@H]1CC(C)(C)C[C@H]2C3=CC[C@@H]4[C@@]5(C)CCC(=O)C(C)(C)[C@@H]5CC[C@@]4(C)[C@]3(C)CC[C@@]12C(=O)O 97
CC1(C)C[C@@H](O)[C@]2(C(=O)O)CC[C@]3(C)C(=CC[C@@H]4[C@@]5(C)C/C(=C\C=C\c6ccccc6)C(=O)C(C)(C)[C@@H]5CC[C@]43C)[C@@H]2C1 94

# assay system RXF 393: give growth at 0.01 µM of C/C=C(/C)C(=O)O[C@@H]1CC(C)(C)C[C@H]2C3=CC[C@@H]4[C@@]5(C)CC[C@H](O)C(C)(C)[C@@H]5CC[C@@]4(C)[C@]3(C)CC[C@@]12C(=O)O
93

----------
Each entry below carries its recorded CC50.
Tested on: OVCAR-4
Assay: Growth inhibition of human OVCAR4 cells by sulforhodamine B assay
Type: functional
Settings: read-out: LC50 (the source's name)

compound	property-measured	result
CC(C)=CC(=O)O[C@@H]1CC(C)(C)C[C@H]2C3=CC[C@@H]4[C@@]5(C)CC[C@H](O)C(C)(C)[C@@H]5CC[C@@]4(C)[C@]3(C)CC[C@@]12C(=O)O [Reduced Lantadene B]	CC50	> 100 µM

Output CC50 of CC1(C)C[C@@H](O)[C@]2(C(=O)O)CC[C@]3(C)C(=CC[C@@H]4[C@@]5(C)C/C(=C\C=C\c6ccccc6)C(=O)C(C)(C)[C@@H]5CC[C@]43C)[C@@H]2C1
40.2 µM

Output CC50 of CC(C)=CC(=O)O[C@@H]1CC(C)(C)C[C@H]2C3=CC[C@@H]4[C@@]5(C)CCC(=O)C(C)(C)[C@@H]5CC[C@@]4(C)[C@]3(C)CC[C@@]12C(=O)O
> 100 µM

Output CC50 of C/C=C(/C)C(=O)O[C@@H]1CC(C)(C)C[C@H]2C3=CC[C@@H]4[C@@]5(C)CCC(=O)C(C)(C)[C@@H]5CC[C@@]4(C)[C@]3(C)CC[C@@]12C(=O)O [LANTADENE A]
> 100 µM

----------
Tested on: ACHN
Assay: Growth inhibition of human ACHN cells assessed as growth inhibition at 10 uM by sulforhodamine B assay
Assay type: functional
Settings: read-out: GI
property-measured: inhibition of growth at 10 µM

Solved entries:
compound	assay-target	inhibition of growth at 10 µM
CC(C)=CC(=O)O[C@@H]1CC(C)(C)C[C@H]2C3=CC[C@@H]4[C@@]5(C)CC[C@H](O)C(C)(C)[C@@H]5CC[C@@]4(C)[C@]3(C)CC[C@@]12C(=O)O [Reduced Lantadene B]	ACHN	53.7%
CC1(C)C[C@@H](O)[C@]2(C(=O)O)CC[C@]3(C)C(=CC[C@@H]4[C@@]5(C)CCC(=O)C(C)(C)[C@@H]5CC[C@]43C)[C@@H]2C1	ACHN	< 10%

# assay system ACHN: give inhibition of growth at 10 µM of CC1(C)C[C@@H](O)[C@]2(C(=O)O)CC[C@]3(C)C(=CC[C@@H]4[C@@]5(C)C/C(=C\C=C\c6ccccc6)C(=O)C(C)(C)[C@@H]5CC[C@]43C)[C@@H]2C1
58.1%
